target: activated ERK2 (Homo sapiens (Human), UniProt P28482); assay: Activated ERK2 kinase assay, ERK2 New conditions (AlphaScreen, ERKtide phosphorylation); type: biochemical; conditions: 0.25 nM ERK2, 200 nM ERKtide peptide, 35 μM ATP, 30 min preincubation
Sequence (P28482 whole entry): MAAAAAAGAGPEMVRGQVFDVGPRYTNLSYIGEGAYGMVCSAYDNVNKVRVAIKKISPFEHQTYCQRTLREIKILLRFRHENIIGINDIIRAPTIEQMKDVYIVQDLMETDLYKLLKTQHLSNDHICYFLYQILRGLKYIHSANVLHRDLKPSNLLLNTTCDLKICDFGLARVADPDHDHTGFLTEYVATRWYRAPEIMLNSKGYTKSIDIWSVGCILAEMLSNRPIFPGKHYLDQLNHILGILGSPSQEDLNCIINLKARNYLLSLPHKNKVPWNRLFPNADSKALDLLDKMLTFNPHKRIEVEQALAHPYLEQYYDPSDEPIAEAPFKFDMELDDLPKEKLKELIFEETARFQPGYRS
Parameter log10(IC50): see the listing below.
Value type: log10(IC50) (log10 of the value in nM)

Molecule	System tested	Recorded value
Cc1oncc1-c1cnc(N)c(-c2ccc(C(=O)N[C@H](CO)c3ccccc3)c(F)c2)n1	activated ERK2 (Homo sapiens (Human), UniProt P28482)	-0.38
NC[C@@H](NC(=O)c1ccc(-c2nc(C3CCOCC3)cnc2N)cc1F)c1ccccc1	activated ERK2 (Homo sapiens (Human), UniProt P28482)	-0.60
Nc1ncc(C2CCOCC2)nc1-c1ccc(C(=O)NCc2ccccc2)c(F)c1	activated ERK2 (Homo sapiens (Human), UniProt P28482)	0.83
C[C@@H](NC(=O)c1ccc(-c2nc([C@H]3CC[C@@H](O)CC3)cnc2N)cc1F)c1cc(F)cc(S(C)(=O)=O)c1	activated ERK2 (Homo sapiens (Human), UniProt P28482)	0.29
CC1(c2cnc(N)c(-c3ccc(C(=O)N[C@H](CO)c4ccccc4)c(F)c3)c2)CCOCC1	activated ERK2 (Homo sapiens (Human), UniProt P28482)	0.56
N=C1OC[C@@H]2C[C@H](c3cnc(N)c(-c4ccc(C(=O)N[C@H](CO)c5cccc(Cl)c5)c(F)c4)c3)CN12	activated ERK2 (Homo sapiens (Human), UniProt P28482)	1.08
CC(CO)c1cnc(N)c(-c2ccc(C(=O)NCc3ccccc3)c(F)c2)n1 (racemic)	activated ERK2 (Homo sapiens (Human), UniProt P28482)	2.44
CCn1cc(-c2cnc(N)c(-c3ccc(C(=O)N[C@H](CO)c4cccc(F)c4)c(F)c3)c2)cn1	activated ERK2 (Homo sapiens (Human), UniProt P28482)	0.29
COC(=O)N1CCC(c2cnc(N)c(-c3ccc(C(=O)N[C@H](CO)c4ccccc4)c(F)c3)c2)C1 (stereo partly drawn)	activated ERK2 (Homo sapiens (Human), UniProt P28482)	1.81
Nc1ncc(-c2ccoc2)nc1-c1ccc(C(=O)N[C@H](CO)c2ccccc2)cc1	activated ERK2 (Homo sapiens (Human), UniProt P28482)	1.12
Nc1ncc(C2CCOCC2)nc1-c1ccc(C(=O)N[C@H](CO)c2cccc(F)c2)c(F)c1	activated ERK2 (Homo sapiens (Human), UniProt P28482)	-0.29
Cn1cc(-c2cnc(N)c(-c3ccc(C(=O)N[C@H](CO)c4cccc(Cl)c4)c(F)c3)c2)nn1	activated ERK2 (Homo sapiens (Human), UniProt P28482)	-0.08
Cc1c(-c2cnc(N)c(-c3ccc(C(=O)N[C@H](CO)c4cccc(F)c4)c(F)c3)c2)cnn1C	activated ERK2 (Homo sapiens (Human), UniProt P28482)	-0.23
Cn1cncc1-c1cnc(N)c(-c2ccc(C(=O)N[C@H](CO)c3cccc(Cl)c3)c(F)c2)c1	activated ERK2 (Homo sapiens (Human), UniProt P28482)	-0.49
C[C@@H](NC(=O)c1ccc(-c2nc(C3CC3)cnc2N)cc1F)c1cc(F)cc(S(C)(=O)=O)c1	activated ERK2 (Homo sapiens (Human), UniProt P28482)	-0.10
Nc1ncc(C2CCOCC2)nc1-c1ccc(C(=O)N[C@@H]2CCCN(S(=O)(=O)c3ccccc3F)C2)c(F)c1	activated ERK2 (Homo sapiens (Human), UniProt P28482)	2.09
Nc1ncc(C2CCOCC2)nc1-c1ccc(C(=O)NC(c2ccccc2)C(F)F)c(F)c1 (racemic)	activated ERK2 (Homo sapiens (Human), UniProt P28482)	0.92
Cn1cc(-c2cnc(N)c(-c3ccc(C(=O)NCc4cccc(S(C)(=O)=O)c4)c(F)c3)n2)cn1	activated ERK2 (Homo sapiens (Human), UniProt P28482)	1.66
C[C@@H](NC(=O)c1ccc(-c2nc(C3CCN(S(C)(=O)=O)CC3)cnc2N)cc1F)c1cccc(Cl)c1	activated ERK2 (Homo sapiens (Human), UniProt P28482)	0.06
Cc1cccc([C@@H](CO)NC(=O)c2ccc(-c3nc(C4CCOCC4)cnc3N)cc2F)c1	activated ERK2 (Homo sapiens (Human), UniProt P28482)	-0.98
Cn1nncc1-c1cnc(N)c(-c2ccc(C(=O)N[C@H](CO)c3ccccc3)c(F)c2)c1	activated ERK2 (Homo sapiens (Human), UniProt P28482)	0.40
CNC(=O)CCc1cnc(N)c(-c2ccc(C(=O)NCc3ccccc3)c(F)c2)n1	activated ERK2 (Homo sapiens (Human), UniProt P28482)	3.04
Nc1ncc(C2CCOCC2)cc1-c1ccc(C(=O)N[C@H](CO)c2ccccc2)cc1Cl	activated ERK2 (Homo sapiens (Human), UniProt P28482)	2.50
Nc1ncc([C@@H]2CN[C@H](CO)C2)cc1-c1ccc(C(=O)N[C@H](CO)c2cccc(Cl)c2)c(F)c1	activated ERK2 (Homo sapiens (Human), UniProt P28482)	1.81
Cc1oncc1-c1cnc(N)c(-c2ccc(C(=O)N[C@H](CO)c3ccccc3)c(F)c2)c1	activated ERK2 (Homo sapiens (Human), UniProt P28482)	-0.20
Nc1ncc(-c2cn[nH]c2)nc1-c1ccc(C(=O)N[C@H](CO)c2ccccc2)c(F)c1	activated ERK2 (Homo sapiens (Human), UniProt P28482)	0.68
Nc1ncc(C2CCOCC2)nc1-c1ccc(C(=O)N2COC[C@@H]2c2ccccc2)cc1	activated ERK2 (Homo sapiens (Human), UniProt P28482)	2.03
Nc1ncc(C2CCCCC2)nc1-c1ccc(C(=O)NCc2ccccc2)c(F)c1	activated ERK2 (Homo sapiens (Human), UniProt P28482)	1.10
Cc1cccc([C@@H](CO)NC(=O)c2ccc(-c3cc(-c4cn(C)nc4C)cnc3N)cc2F)c1	activated ERK2 (Homo sapiens (Human), UniProt P28482)	-0.77
C[C@@H](NC(=O)c1ccc(-c2cc([C@H]3CCC(=O)N(C)C3)cnc2N)cc1F)c1cccc(Cl)c1	activated ERK2 (Homo sapiens (Human), UniProt P28482)	0.39
